assay: Metabolic stability in dog hepatocytes assessed as intrinsic clearance at 2 uM measured for 120 mins by LC-MS analysis; format: ADME, cell-based, Canis lupus familiaris, Hepatocyte; settings: read-out: CLH
PROPERTY MEASURED: CLint scaled at 2 µM (mL/min/kg)
Report only the number, with the unit mL/min/kg understood.

Task: Would you mind telling me what CLint scaled at 2 µM value was observed for Nc1ncc(-c2cn(C34CC(F)(C3)C4)c([C@@H](O)C(F)(F)F)n2)cc1OC(F)(F)F ?
Output: 9.2

* * *

test: AUClast in Beagle dog at 1 mg/kg, po or 0.3 mg/kg, iv measured for 24 hrs by LC-MS/MS analysis; assay type: ADME, organism-based, Canis lupus familiaris; design: time 24 hrs, dose 1 mg/kg, route po; conditions: in vivo
PROPERTY MEASURED: AUC(0-t) at 24 h (µM·h)
# output: bare number, implied unit µM·h

Task: If you can, please state the reported AUC(0-t) at 24 h value of Nc1ncc(-c2cn(C34CC(F)(C3)C4)c([C@@H](O)C(F)(F)F)n2)cc1OC(F)(F)F .
Output: 15.3
